# target-or-system: ALK (Homo sapiens (Human), UniProt Q9UM73)
# Sequence (Q9UM73 19-1620): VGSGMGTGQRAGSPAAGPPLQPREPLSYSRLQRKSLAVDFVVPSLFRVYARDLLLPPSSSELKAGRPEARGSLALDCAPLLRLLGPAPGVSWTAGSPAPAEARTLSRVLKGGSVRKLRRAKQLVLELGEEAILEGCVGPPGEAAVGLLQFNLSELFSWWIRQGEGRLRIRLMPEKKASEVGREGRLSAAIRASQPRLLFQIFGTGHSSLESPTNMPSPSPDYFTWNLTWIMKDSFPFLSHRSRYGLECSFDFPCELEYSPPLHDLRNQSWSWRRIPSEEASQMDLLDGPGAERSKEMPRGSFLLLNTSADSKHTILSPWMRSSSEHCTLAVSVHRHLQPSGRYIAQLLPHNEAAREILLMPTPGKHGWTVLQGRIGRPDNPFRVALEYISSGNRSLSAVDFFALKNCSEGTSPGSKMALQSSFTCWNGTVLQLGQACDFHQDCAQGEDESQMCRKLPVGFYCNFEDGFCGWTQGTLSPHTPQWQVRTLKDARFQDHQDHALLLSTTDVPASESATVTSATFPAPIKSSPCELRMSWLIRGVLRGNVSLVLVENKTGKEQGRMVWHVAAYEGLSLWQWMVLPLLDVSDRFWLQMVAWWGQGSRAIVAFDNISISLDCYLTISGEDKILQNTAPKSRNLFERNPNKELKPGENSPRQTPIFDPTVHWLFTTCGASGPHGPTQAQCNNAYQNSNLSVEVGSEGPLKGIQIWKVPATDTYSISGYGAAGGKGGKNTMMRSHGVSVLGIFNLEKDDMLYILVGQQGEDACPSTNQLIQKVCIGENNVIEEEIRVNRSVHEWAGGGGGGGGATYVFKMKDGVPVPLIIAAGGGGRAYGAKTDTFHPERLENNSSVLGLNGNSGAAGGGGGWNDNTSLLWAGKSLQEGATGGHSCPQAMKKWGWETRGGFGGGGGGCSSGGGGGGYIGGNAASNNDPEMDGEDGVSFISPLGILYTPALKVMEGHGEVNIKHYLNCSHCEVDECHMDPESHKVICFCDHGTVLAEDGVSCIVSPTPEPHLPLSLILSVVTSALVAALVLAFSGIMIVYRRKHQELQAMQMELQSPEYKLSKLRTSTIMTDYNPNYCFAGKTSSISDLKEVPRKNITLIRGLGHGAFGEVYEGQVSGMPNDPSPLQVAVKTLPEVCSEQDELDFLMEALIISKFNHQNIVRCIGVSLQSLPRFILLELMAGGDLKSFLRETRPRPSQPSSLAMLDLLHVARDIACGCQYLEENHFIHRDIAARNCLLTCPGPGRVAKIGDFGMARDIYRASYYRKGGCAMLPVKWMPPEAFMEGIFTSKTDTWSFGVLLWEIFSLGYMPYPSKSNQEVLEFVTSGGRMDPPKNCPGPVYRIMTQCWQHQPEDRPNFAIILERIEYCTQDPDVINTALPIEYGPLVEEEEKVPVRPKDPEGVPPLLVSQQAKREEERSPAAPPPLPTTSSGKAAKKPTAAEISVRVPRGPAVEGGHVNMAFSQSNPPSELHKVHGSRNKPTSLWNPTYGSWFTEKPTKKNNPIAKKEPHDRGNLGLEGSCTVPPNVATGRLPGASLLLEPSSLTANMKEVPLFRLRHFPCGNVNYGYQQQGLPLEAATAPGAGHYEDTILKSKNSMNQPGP
# test-name: KinaseProfiler off-target kinase profiling
# Type: biochemical
# condition-context: 10 μM, ATP near Km
quantity-kind: Avg. POC (POC)

>  <compound>
Cc1c(-c2cnn(C)c2)nn(-c2ccccc2)c1NC(=O)N[C@H]1CCCc2ccccc21

>  <quantitative-result>
111

$$$$
>  <compound>
Cc1c(-c2cnn(C)c2)nn(-c2ccccc2)c1NC(=O)NC1CCOc2cc(F)ccc21 (stereo not shown)

>  <quantitative-result>
103

$$$$
>  <compound>
COCc1ccc2c(c1)C(NC(=O)Nc1c(C)c(-c3cnn(C)c3)nn1-c1ccccc1)COC2 (stereo not shown)

>  <quantitative-result>
127

$$$$
>  <compound>
Cc1c(-c2ccc(=O)n(C)c2)nn(-c2ccccc2)c1NC(=O)NC1CN(CC(F)(F)F)Cc2ccccc21 (stereo not shown)

>  <quantitative-result>
117

$$$$

====

# target-or-system: FGFR2 (Homo sapiens (Human), UniProt P21802)
# Sequence (P21802 22-821): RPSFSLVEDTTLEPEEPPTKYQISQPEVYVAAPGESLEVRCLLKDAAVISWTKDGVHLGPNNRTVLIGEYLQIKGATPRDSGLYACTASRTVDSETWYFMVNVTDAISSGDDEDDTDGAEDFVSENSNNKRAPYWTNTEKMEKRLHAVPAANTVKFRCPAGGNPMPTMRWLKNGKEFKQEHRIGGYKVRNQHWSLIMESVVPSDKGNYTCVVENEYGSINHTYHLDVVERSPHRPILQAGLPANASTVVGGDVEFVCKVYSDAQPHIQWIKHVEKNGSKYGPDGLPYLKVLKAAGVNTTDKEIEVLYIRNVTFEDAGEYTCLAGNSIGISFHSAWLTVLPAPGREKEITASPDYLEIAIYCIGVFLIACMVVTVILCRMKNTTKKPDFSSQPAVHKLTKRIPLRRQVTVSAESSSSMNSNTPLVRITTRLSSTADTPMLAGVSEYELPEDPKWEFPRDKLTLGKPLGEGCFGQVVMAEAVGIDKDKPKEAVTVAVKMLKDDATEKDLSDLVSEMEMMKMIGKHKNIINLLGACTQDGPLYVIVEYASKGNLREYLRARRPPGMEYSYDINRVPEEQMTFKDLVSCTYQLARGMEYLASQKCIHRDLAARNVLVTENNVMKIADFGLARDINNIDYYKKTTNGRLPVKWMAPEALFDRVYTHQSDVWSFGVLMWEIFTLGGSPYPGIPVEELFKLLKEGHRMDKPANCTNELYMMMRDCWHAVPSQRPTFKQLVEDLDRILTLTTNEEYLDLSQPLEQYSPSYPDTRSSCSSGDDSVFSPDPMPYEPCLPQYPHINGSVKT
# test-name: KinaseProfiler off-target kinase profiling
# Assay type: biochemical
# condition-context: 10 μM, ATP near Km
quantity-kind: Avg. POC (POC)

>  <molecule>
COCc1ccc2c(c1)C(NC(=O)Nc1c(C)c(-c3cnn(C)c3)nn1-c1ccccc1)COC2 (stereo not shown)

>  <quantity-kind>
Avg. POC

>  <quantitative-result>
110.5

$$$$
>  <molecule>
Cc1c(-c2ccc(=O)n(C)c2)nn(-c2ccccc2)c1NC(=O)NC1CN(CC(F)(F)F)Cc2ccccc21 (stereo not shown)

>  <quantity-kind>
Avg. POC

>  <quantitative-result>
112

$$$$
>  <molecule>
Cc1c(-c2cnn(C)c2)nn(-c2ccccc2)c1NC(=O)NC1CCOc2cc(F)ccc21 (stereo not shown)

>  <quantity-kind>
Avg. POC

>  <quantitative-result>
114

$$$$
>  <molecule>
Cc1c(-c2cnn(C)c2)nn(-c2ccccc2)c1NC(=O)N[C@H]1CCCc2ccccc21

>  <quantity-kind>
Avg. POC

>  <quantitative-result>
112.5

$$$$

====

# target-or-system: UniProt P08581
# Sequence (P08581 25-1390): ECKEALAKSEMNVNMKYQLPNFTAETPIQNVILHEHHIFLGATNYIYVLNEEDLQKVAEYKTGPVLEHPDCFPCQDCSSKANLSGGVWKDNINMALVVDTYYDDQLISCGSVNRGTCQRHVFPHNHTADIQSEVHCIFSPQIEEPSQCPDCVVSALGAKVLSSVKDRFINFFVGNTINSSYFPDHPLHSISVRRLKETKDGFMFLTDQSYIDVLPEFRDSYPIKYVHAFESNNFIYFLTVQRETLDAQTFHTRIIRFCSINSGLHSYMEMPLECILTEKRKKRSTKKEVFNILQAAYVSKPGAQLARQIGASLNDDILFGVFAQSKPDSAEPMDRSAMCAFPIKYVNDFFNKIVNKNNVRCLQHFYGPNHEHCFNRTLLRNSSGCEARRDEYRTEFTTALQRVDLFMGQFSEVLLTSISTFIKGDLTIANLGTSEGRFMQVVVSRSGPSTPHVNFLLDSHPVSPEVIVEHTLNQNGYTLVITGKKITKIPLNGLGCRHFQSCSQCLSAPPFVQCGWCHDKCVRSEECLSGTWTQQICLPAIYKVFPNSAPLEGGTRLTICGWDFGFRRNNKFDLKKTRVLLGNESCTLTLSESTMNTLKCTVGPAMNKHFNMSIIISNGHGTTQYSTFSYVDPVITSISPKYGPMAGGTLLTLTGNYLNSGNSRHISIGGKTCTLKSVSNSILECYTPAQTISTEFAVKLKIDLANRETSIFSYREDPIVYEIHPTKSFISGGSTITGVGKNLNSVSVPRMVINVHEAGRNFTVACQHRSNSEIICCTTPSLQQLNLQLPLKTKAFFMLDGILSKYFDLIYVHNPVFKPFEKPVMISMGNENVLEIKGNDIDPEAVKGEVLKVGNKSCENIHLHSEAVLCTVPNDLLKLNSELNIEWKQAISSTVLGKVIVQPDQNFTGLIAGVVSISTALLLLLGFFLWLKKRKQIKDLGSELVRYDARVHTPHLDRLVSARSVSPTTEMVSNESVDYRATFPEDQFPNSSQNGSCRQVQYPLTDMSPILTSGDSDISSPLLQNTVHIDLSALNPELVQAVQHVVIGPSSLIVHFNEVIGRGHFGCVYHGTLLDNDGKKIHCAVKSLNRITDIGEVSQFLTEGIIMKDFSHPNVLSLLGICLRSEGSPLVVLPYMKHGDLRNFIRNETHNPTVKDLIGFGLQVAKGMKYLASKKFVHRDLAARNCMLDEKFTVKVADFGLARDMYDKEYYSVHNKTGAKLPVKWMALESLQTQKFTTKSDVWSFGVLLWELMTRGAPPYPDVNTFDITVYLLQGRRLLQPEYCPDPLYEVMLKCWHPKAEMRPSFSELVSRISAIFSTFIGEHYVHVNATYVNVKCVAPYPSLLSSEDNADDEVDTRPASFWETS
# test-name: KinaseProfiler off-target kinase profiling
# Format: biochemical
# condition-context: 10 μM, ATP near Km
quantity-kind: Avg. POC (POC)

>  <molecule>
Cc1c(-c2ccc(=O)n(C)c2)nn(-c2ccccc2)c1NC(=O)NC1CN(CC(F)(F)F)Cc2ccccc21 (stereo not shown)

>  <Avg. POC [POC]>
81

$$$$
>  <molecule>
COCc1ccc2c(c1)C(NC(=O)Nc1c(C)c(-c3cnn(C)c3)nn1-c1ccccc1)COC2 (stereo not shown)

>  <Avg. POC [POC]>
118.5

$$$$
>  <molecule>
Cc1c(-c2cnn(C)c2)nn(-c2ccccc2)c1NC(=O)N[C@H]1CCCc2ccccc21

>  <Avg. POC [POC]>
148.5

$$$$
>  <molecule>
Cc1c(-c2cnn(C)c2)nn(-c2ccccc2)c1NC(=O)NC1CCOc2cc(F)ccc21 (stereo not shown)

>  <Avg. POC [POC]>
109

$$$$

====

# target-or-system: EphA5 (Homo sapiens (Human), UniProt P54756)
# Sequence (P54756 25-1037): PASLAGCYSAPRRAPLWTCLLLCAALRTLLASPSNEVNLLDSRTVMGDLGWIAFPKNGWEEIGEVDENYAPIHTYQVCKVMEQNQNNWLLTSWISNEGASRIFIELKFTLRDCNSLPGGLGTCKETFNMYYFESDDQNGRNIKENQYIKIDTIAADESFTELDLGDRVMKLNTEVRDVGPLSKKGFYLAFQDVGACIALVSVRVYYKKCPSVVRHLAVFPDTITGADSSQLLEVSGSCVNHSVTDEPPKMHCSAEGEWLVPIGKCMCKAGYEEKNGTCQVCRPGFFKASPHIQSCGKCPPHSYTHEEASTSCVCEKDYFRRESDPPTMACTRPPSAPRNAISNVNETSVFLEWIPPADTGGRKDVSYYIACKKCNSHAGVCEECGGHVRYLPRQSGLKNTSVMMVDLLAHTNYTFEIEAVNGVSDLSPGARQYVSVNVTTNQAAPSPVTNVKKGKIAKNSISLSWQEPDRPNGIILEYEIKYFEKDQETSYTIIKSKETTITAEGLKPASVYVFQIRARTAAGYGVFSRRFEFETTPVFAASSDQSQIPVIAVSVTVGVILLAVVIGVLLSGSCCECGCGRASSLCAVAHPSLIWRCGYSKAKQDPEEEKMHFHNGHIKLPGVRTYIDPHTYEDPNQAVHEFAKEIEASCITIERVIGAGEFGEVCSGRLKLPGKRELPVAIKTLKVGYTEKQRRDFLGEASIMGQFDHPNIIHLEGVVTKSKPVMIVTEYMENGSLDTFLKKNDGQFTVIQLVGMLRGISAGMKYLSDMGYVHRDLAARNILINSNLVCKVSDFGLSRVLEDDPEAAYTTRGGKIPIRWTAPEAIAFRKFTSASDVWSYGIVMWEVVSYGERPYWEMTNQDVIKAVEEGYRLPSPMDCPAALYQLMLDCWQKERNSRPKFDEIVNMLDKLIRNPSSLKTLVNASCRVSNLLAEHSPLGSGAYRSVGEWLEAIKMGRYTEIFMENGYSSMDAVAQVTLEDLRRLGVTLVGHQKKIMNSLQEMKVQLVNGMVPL
# test-name: KinaseProfiler off-target kinase profiling
# Assay type: biochemical
# condition-context: 10 μM, ATP near Km
quantity-kind: Avg. POC (POC)

>  <compound>
COCc1ccc2c(c1)C(NC(=O)Nc1c(C)c(-c3cnn(C)c3)nn1-c1ccccc1)COC2 (stereo not shown)

>  <target-or-system>
EphA5 (Homo sapiens (Human), UniProt P54756)

>  <Avg. POC (POC)>
104.5

$$$$
>  <compound>
Cc1c(-c2cnn(C)c2)nn(-c2ccccc2)c1NC(=O)N[C@H]1CCCc2ccccc21

>  <target-or-system>
EphA5 (Homo sapiens (Human), UniProt P54756)

>  <Avg. POC (POC)>
119

$$$$
>  <compound>
Cc1c(-c2cnn(C)c2)nn(-c2ccccc2)c1NC(=O)NC1CCOc2cc(F)ccc21 (stereo not shown)

>  <target-or-system>
EphA5 (Homo sapiens (Human), UniProt P54756)

>  <Avg. POC (POC)>
118.5

$$$$
>  <compound>
Cc1c(-c2ccc(=O)n(C)c2)nn(-c2ccccc2)c1NC(=O)NC1CN(CC(F)(F)F)Cc2ccccc21 (stereo not shown)

>  <target-or-system>
EphA5 (Homo sapiens (Human), UniProt P54756)

>  <Avg. POC (POC)>
106.5

$$$$
